Test System: Gag-Pol polyprotein (Moloney murine leukemia virus isolate Shinnick) (UniProt P03355)
Criterion met if ID50 is below 8 µg/mL. Criterion not met if not; exact matches included in Criterion not met.

- N=C(N)c1ccc(N/N=C/c2cc3cc(C(=N)N)ccc3o2)cc1: Criterion met
- CN(C)/C=N/c1ccc(-c2cc3cc(/N=C/N(C)C)ccc3o2)cc1: Criterion not met
- C(=C\c1cc2cc(C3=NCCN3)ccc2o1)/c1cc2cc(C3=NCCN3)ccc2o1: Criterion met
- N=C(N)c1ccc2oc(/C=C/c3cc4ccc(C(=N)N)cc4o3)cc2c1: Criterion met
- N=C(N)c1ccc(-c2[nH]c3cc(C(=N)N)ccc3c2N)cc1: Criterion not met
